Experiment: in vivo
Conditions: Daphnia magna, LC50, incubation period 24 h

compound | LC50 [µM]
COc1cccc(/C=N/NC(=O)c2ccncc2)c1O [HL] | 53.1

* * *

Tested on: SKBR-3 human breast cancer cell line
Test: Alamar blue cell viability assay
Assay type: cell-based
Details: 48 h treatment, 10 µM, relative to untreated control
Procedure: Compounds HL, 1, 5, 6 and 8 were dissolved in dimethyl sulfoxide (DMSO; Sigma-Aldrich, Ayrshire, UK) and stored at 2–8 °C. Compounds 2, 3, 4 and 7 were dissolved in pyridine (Fluka, Munich, Germany). […] All tested cell lines were seeded onto a 96-well microplate ([…]) and left overnight to attach to the bottom of the well. […] After another 10 h of incubation at 37 °C, the samples were spectrophotometrically analyzed using a microplate reader. […]
Mark Yes for Viability % under 50%, No if at or over.

compound | assignedCategory
COc1cccc(C=NNC(=O)c2ccncc2)c1[O-].COc1cccc(C=NNC(=O)c2ccncc2)c1[O-].[Zn+2] [complex 6, [Zn(L)2]] | No
COc1cccc(C=NNC(=O)c2ccncc2)c1[O-].O.O=[N+]([O-])[O-].[Cu+2] [complex 3, [Cu(L)(NO3)]·H2O] | No
CC(=O)[O-].COc1cccc(C=NNC(=O)c2ccncc2)c1[O-].[Cu+2] [complex 2, [Cu(L)(CH3COO)]] | Yes
COc1cccc(C=NNC(=O)c2ccncc2)c1[O-].O.O.[Cl-].[Cu+2] [complex 1, [Cu(L)(Cl)]·2H2O] | Yes
COc1cccc(C=NNC(=O)c2ccncc2)c1[O-].COc1cccc(C=NNC(=O)c2ccncc2)c1[O-].[Co+2] [complex 5, [Co(L)2]] | No
COc1cccc(C=NNC(=O)c2ccncc2)c1[O-].[Cl-].[Ni+2] [complex 7, [Ni(L)(Cl)]] | Yes
